Recorded values, source ChEMBL document CHEMBL3885881.

Species: Rattus norvegicus
Test: DrugMatrix - Regimen: Daily Repeat
Format: toxicity, organism-based, Sprague-Dawley
Set-up: regimen Daily Repeat, gender Male, age 6-8 weeks
Details: in vivo, po, 0 mg/kg, 72 h, tissue Blood, route oral GAVAGE, dose level Control, time 3 day, […]
ASSAY METRIC: MEAN CORPUSCULAR HEMOGLOBIN CONCENTRATION (G/DL)
Give bare numbers, in G/DL.

COMPOUND: Oc1c(Cl)cc(Cl)cc1Sc1cc(Cl)cc(Cl)c1O [BITHIONOL]
NUMBER: 39.4
--
COMPOUND: CC(C)n1c(/C=C/C(O)CC(O)CC(=O)O)c(-c2ccc(F)cc2)c2ccccc21 (stereo not drawn) [FLUVASTATIN]
NUMBER: 39.4
--
COMPOUND: CSc1ccc2c(c1)N(CCC1CCCCN1C)c1ccccc1S2 (stereo not drawn) [THIORIDAZINE]
NUMBER: 37.12

Report MEAN CORPUSCULAR HEMOGLOBIN CONCENTRATION for each item below.
1. COC1=CC(=O)C[C@@H](C)[C@]12Oc1c(Cl)c(OC)cc(OC)c1C2=O [GRISEOFULVIN]
2. CN(C)CCCC1(c2ccc(F)cc2)OCc2cc(C#N)ccc21 (stereo not drawn) [CITALOPRAM]
3. COCc1c(C(C)C)nc(C(C)C)c(/C=C/[C@@H](O)C[C@@H](O)CC(=O)O)c1-c1ccc(F)cc1 [CERIVASTATIN]
4. CC(C)(Oc1ccc(CCNC(=O)c2ccc(Cl)cc2)cc1)C(=O)O [BEZAFIBRATE]
5. CCCC[C@@H](CC)COC(=O)c1ccccc1C(=O)OC[C@@H](CC)CCCC [BIS(2-ETHYLHEXYL)PHTHALATE]

39.82
37.92
38.1
39.77
39.05

====

Species on record: Rattus norvegicus
Assay: DrugMatrix - Regimen: Daily Repeat
Assay type: toxicity, organism-based, Sprague-Dawley
Set-up: regimen Daily Repeat, gender Male, age 6-8 weeks
Settings: in vivo, po, 0 mg/kg, 72 h, tissue Blood, route oral GAVAGE, dose level Control, time 3 day, […]
ASSAY METRIC: ABSOLUTE MONOCYTE (CELLS/uL)
Answers are plain numbers, in CELLS/uL.

See these solved cases before continuing.
MOLECULE: COCc1c(C(C)C)nc(C(C)C)c(/C=C/[C@@H](O)C[C@@H](O)CC(=O)O)c1-c1ccc(F)cc1
ASSAY METRIC: ABSOLUTE MONOCYTE
NUMBER: 172.17

MOLECULE: Oc1c(Cl)cc(Cl)cc1Sc1cc(Cl)cc(Cl)c1O
ASSAY METRIC: ABSOLUTE MONOCYTE
NUMBER: 80.17

MOLECULE: CSc1ccc2c(c1)N(CCC1CCCCN1C)c1ccccc1S2 (centres undefined)
ASSAY METRIC: ABSOLUTE MONOCYTE
NUMBER: 128.83

MOLECULE: COC1=CC(=O)C[C@@H](C)[C@]12Oc1c(Cl)c(OC)cc(OC)c1C2=O
ASSAY METRIC: ABSOLUTE MONOCYTE
NUMBER: 164

MOLECULE: Cn1cnc([N+](=O)[O-])c1Sc1ncnc2nc[nH]c12
ASSAY METRIC: ABSOLUTE MONOCYTE
NUMBER: 354.33

MOLECULE: c1ccc2[nH]c(-c3cscn3)nc2c1
ASSAY METRIC: ABSOLUTE MONOCYTE
NUMBER: 50

MOLECULE: CC(C)n1c(/C=C/C(O)CC(O)CC(=O)O)c(-c2ccc(F)cc2)c2ccccc21 (centres undefined)
ASSAY METRIC: ABSOLUTE MONOCYTE
NUMBER: 80.17

Consider now this further molecule.
Please report the recorded ABSOLUTE MONOCYTE for CCCC[C@@H](CC)COC(=O)c1ccccc1C(=O)OC[C@@H](CC)CCCC [BIS(2-ETHYLHEXYL)PHTHALATE] .
50
